- measurement_target: 5HT1A (Homo sapiens)
- Construct: expressed in transfected cells; host or cells: HEK293 (membrane fraction)
- Sequence (P08908 whole entry): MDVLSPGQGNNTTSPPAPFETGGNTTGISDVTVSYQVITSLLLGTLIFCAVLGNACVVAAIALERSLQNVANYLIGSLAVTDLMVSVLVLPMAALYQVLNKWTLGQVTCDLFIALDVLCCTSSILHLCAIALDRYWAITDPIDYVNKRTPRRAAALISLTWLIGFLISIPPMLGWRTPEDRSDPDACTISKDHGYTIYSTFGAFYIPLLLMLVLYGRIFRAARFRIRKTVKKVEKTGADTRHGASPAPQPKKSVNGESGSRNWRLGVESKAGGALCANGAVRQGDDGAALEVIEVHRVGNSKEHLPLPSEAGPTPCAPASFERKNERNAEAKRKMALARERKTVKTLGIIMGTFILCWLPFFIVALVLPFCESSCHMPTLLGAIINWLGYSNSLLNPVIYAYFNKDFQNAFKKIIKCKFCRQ
- experiment_notes: Competitive radioligand binding, 5HT1A
- measurement_conditions: HEK293 membranes, 3H-8-OH-DPAT 0.5 nM; read-out: pIC50 5HT1A (converted)
So I've got a bunch of molecules here, and I need their IC50 values.
Answers are plain numbers, in nM.

Take each entry in turn and give its IC50.
1. COc1cc(N)c(Cl)cc1C(=O)NC1CCN(CCCOc2ccc(F)cc2)CC1(F)F (racemic) [(±)-17]
2. COc1cc(N)c(Cl)cc1C(=O)N[C@@H]1CCN(CCCOc2ccc(F)cc2)C[C@H]1F (single isomer, unassigned) [(+)-7]

Output:
1: 7940; 2: 676

Take each entry in turn and give its IC50.
1. COc1cc(N)c(Cl)cc1C(=O)N[C@H]1CCN(CCCOc2ccc(F)cc2)C[C@H]1F (single isomer, unassigned) [(−)-12]
2. COc1cc(N)c(Cl)cc1C(=O)N[C@H]1CCN(CCCOc2ccc(F)cc2)C[C@H]1F (single isomer, unassigned) [(+)-12]
3. COc1cc(N)c(Cl)cc1C(=O)NC1CCN(CCCOc2ccc(F)cc2)CC1OC (stereo not shown) [Cisapride, reference compound]
4. COc1cc(N)c(Cl)cc1C(=O)N[C@@H]1CCN(CCCOc2ccc(F)cc2)C[C@H]1F (single isomer, unassigned) [(−)-7]
5. COc1cc(N)c(Cl)cc1C(=O)N[C@H]1CCN(CCCOc2ccc(F)cc2)C[C@H]1F (racemic) [(±)-12]
6. COc1cc(N)c(Cl)cc1C(=O)N[C@@H]1CCN(CCCOc2ccc(F)cc2)C[C@H]1F (racemic) [(±)-7]

Output:
1860
741
1950
1100
4170
1820

Reading of IC50 for COc1cc(N)c(Cl)cc1C(=O)NC1CCN(CCCOc2ccc(F)cc2)CC1(F)F (single isomer, unassigned; (+)) [(+)-17] with 5HT1A (Homo sapiens): 5620

* * *

- measurement_target: Alpha2A (Homo sapiens)
- Construct: expressed in transfected cells; host or cells: CHO (membrane fraction)
- Sequence (P08913 whole entry): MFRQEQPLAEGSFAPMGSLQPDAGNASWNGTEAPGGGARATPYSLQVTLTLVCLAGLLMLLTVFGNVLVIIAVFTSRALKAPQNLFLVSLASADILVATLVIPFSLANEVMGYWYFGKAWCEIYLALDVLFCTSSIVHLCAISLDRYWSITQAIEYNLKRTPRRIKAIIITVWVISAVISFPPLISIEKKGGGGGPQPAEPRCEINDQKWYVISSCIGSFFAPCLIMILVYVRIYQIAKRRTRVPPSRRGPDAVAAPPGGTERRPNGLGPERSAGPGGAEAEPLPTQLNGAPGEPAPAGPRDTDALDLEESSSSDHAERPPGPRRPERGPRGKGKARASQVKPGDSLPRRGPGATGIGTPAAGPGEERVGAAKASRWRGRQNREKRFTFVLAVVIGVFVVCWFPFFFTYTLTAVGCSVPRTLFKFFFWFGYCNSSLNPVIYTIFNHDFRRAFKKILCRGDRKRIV
- experiment_notes: Competitive radioligand binding, Alpha2A
- measurement_conditions: CHO membranes, 3H-rauwolscine 1 nM; read-out: pIC50 Alpha2A (converted)
measured_endpoint: IC50 (µM)
Numbers only, in µM.

[[record]]
molecule = "COc1cc(N)c(Cl)cc1C(=O)N[C@H]1CCN(CCCOc2ccc(F)cc2)C[C@H]1F (racemic) [(±)-12]"
val = 4.79


Take each entry in turn and give its IC50.
1. COc1cc(N)c(Cl)cc1C(=O)N[C@@H]1CCN(CCCOc2ccc(F)cc2)C[C@H]1F (single isomer, unassigned) [(−)-7]
2. COc1cc(N)c(Cl)cc1C(=O)N[C@@H]1CCN(CCCOc2ccc(F)cc2)C[C@H]1F (racemic) [(±)-7]

Output:
1. 7.76
2. 3.63

Reading of IC50 for COc1cc(N)c(Cl)cc1C(=O)N[C@H]1CCN(CCCOc2ccc(F)cc2)C[C@H]1F (single isomer, unassigned) [(−)-12] with Alpha2A (Homo sapiens): 8.13

* * *

- measurement_target: 5HT2C (Homo sapiens, UniProt P28335)
- Construct: expressed in transfected cells; host or cells: CHO (membrane fraction)
- Sequence (P28335 33-458): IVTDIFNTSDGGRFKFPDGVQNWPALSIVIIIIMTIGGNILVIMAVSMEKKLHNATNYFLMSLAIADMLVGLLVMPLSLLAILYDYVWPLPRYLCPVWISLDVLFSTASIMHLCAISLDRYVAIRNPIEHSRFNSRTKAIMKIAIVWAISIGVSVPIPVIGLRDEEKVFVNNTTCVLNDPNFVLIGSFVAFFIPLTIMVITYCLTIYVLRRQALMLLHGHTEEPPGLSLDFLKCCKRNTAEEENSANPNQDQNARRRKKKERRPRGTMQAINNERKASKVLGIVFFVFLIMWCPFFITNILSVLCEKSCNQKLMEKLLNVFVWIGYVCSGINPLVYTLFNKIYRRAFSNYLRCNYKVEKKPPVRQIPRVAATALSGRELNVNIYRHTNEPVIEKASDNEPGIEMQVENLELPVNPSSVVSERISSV
- experiment_notes: Competitive radioligand binding, 5HT2C
- measurement_conditions: CHO membranes, 3H-mesulergin 1 nM; read-out: pIC50 5HT2C (converted)
So I've got a bunch of compounds here, and I need their IC50 values.
One number for each entry, in µM.

# example entries with known answers
[[record]]
compound = "COc1cc(N)c(Cl)cc1C(=O)N[C@@H]1CCN(CCCOc2ccc(F)cc2)C[C@H]1F (racemic) [(±)-7]"
output_unit = "µM"
val = 1.82

[[record]]
compound = "COc1cc(N)c(Cl)cc1C(=O)N[C@H]1CCN(CCCOc2ccc(F)cc2)C[C@H]1F (single isomer, unassigned) [(−)-12]"
output_unit = "µM"
val = 6.61

[[record]]
compound = "COc1cc(N)c(Cl)cc1C(=O)N[C@@H]1CCN(CCCOc2ccc(F)cc2)C[C@H]1F (single isomer, unassigned) [(−)-7]"
output_unit = "µM"
val = 3.72


Take each entry in turn and give its IC50.
1. COc1cc(N)c(Cl)cc1C(=O)NC1CCN(CCCOc2ccc(F)cc2)CC1(F)F (single isomer, unassigned) [Compound (−)-17]
2. COc1cc(N)c(Cl)cc1C(=O)N[C@@H]1CCN(CCCOc2ccc(F)cc2)C[C@H]1F (single isomer, unassigned) [(+)-7]
3. COc1cc(N)c(Cl)cc1C(=O)N[C@H]1CCN(CCCOc2ccc(F)cc2)C[C@H]1F (single isomer, unassigned) [(+)-12]

Output:
1: 6.61; 2: 1.23; 3: 5.01
